Origin of measurements: ChEMBL document CHEMBL1141184

- Test system: L1210
- measurement.notes: Inhibition of L1210 cell proliferation in cytotoxic assay
- Format: functional, cell-based
- test.parameters: Mus musculus
Here, each record is paired with measured IC50 data.
I'd appreciate it if you included the unit after the number.

Recorded results for 5 molecules are shown here.
>>> measured_result("COc1cc([C@@H]2c3cc4c(cc3[C@@H](OC(=O)N(C)CCCN(C)C)[C@H]3C(=O)OC[C@H]23)OCO4)cc(OC)c1O")
"21000 nM"
>>> measured_result("COc1cc([C@@H]2c3cc4c(cc3[C@@H](OC(=O)N(C)CCCN(C)C)C3COC(=O)[C@@H]32)OCO4)cc(OC)c1O (stereo partly specified)")
"960 nM"
>>> measured_result("COc1cc([C@@H]2c3cc4c(cc3[C@@H](CCN(C)CCN(C)C)C3COC(=O)[C@@H]32)OCO4)cc(OC)c1O (stereo partly specified)")
"600 nM"
>>> measured_result("COc1cc([C@@H]2c3cc4c(cc3[C@@H](OC(=O)NCCN(C)C)[C@H]3C(=O)OC[C@H]23)OCO4)cc(OC)c1O")
"88 nM"
>>> measured_result("COc1cc([C@@H]2c3cc4c(cc3[C@@H](OCNCCN(C)C)C3COC(=O)[C@@H]32)OCO4)cc(OC)c1O (stereo partly specified)")
"27900 nM"

Input line: Which IC50 is reported with L1210 for this entry: COc1cc([C@@H]2c3cc4c(cc3[C@@H](OC(=O)N(C)CCCN)C3COC(=O)[C@@H]32)OCO4)cc(OC)c1O (stereo partly specified) ?
Output line: 240 nM
